Biological target: T1, HLA-DRB1*0401 (human)
T1 chain 1: not shown
T1 chain 2: not shown
Experiment: competition vs 125I probe peptide, purified HLA
Details: remark: other sources report otherwise
ASSAY_READOUT: pIC50
The value called pIC50 is obtained by taking minus log10 of the concentration in mol/L.

Asked: What does the record list as pIC50 for RRPILTIITLEDSSG [p53.248] ?
Given back: 5.35
